Target: human alpha 7-wt nAChR (Homo sapiens)
Construct: expressed in transfected cells
Sequence (P36544 23-502): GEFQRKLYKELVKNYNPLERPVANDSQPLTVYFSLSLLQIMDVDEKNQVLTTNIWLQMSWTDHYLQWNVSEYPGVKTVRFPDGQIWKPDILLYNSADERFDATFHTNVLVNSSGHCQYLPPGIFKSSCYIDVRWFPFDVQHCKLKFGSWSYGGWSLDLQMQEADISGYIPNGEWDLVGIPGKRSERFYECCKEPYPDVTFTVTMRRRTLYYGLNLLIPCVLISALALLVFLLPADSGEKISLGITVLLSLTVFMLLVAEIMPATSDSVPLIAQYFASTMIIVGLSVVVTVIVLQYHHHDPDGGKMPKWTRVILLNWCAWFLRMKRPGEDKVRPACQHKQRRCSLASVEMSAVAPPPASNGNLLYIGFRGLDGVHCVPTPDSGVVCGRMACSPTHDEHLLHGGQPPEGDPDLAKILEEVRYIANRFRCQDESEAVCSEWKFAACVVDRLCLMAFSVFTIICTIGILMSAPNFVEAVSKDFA
Assay: Ca2+ flux imaging (FDSS) (Protocol B)
Format: cell-based
Details: efficacy of 100 μM choline defined as 100% in the absence of a PAM; read-out: a7-PAM-G_[33]_Eff_Curve_FI % Efficacy
What Emax was measured for each of the following?
Numbers only, in %.

Cc1cc(-c2sc(N3CCOCC3)nc2CNC(=O)c2cc(C)on2)cc(C)n1 :: 969
Cc1cc(-c2sc(N3CCOCC3)nc2CNC(=O)c2conc2C)cc(C)n1 :: 633
Cc1cc(-c2sc(N3C[C@@H](C)O[C@@H](C)C3)nc2CNC(=O)c2ccc(F)cc2C)cc(C2CC2)n1 :: 780

Now for the compound whose Emax we want.
For this compound ( Cc1cc(-c2sc(N3C[C@@H](C)O[C@@H](C)C3)nc2CNC(=O)C2(O)CC2)cc(C)n1 ), measured Emax is 149
